tested on: Mycobacterium tuberculosis; assay: Antimycobacterial activity against Mycobacterium tuberculosis H37Rv after 7 days by MABA assay; assay type: functional; conditions: 168 h
With a cut-off of 50 µM, any MIC strictly below it is called Satisfied; any MIC meeting it or above is called Not satisfied.

MIC under 50 µM? Item: CCOC(=O)c1sc(-c2ccccc2)nc1N1CCC(NCc2ccc(OCc3ccccc3)cc2)CC1
Satisfied

MIC under 50 µM? Item: CCOC(=O)c1sc(-c2ccccc2)nc1N1CCC(NCc2ccccc2)CC1
Not satisfied

MIC under 50 µM? Item: CO[C@@H]1[C@@H](OC(N)=O)[C@@H](O)[C@H](Oc2ccc3c(O)c(NC(=O)c4ccc(O)c(CC=C(C)C)c4)c(=O)oc3c2C)OC1(C)C
Not satisfied

MIC under 50 µM? Item: CCOC(=O)c1sc(-c2ccccc2)nc1N1CCC(NCc2ccc(OC)cc2)CC1
Not satisfied

MIC under 50 µM? Item: CCOC(=O)c1sc(-c2ccncc2)nc1N1CCC(NCc2ccc(OC)cc2)CC1
Not satisfied

MIC under 50 µM? Item: CCOC(=O)c1sc(-c2ccccn2)nc1N1CCC(NCc2ccc(OCc3ccccc3)cc2)CC1
Satisfied

MIC under 50 µM? Item: CCOC(=O)c1sc(-c2ccncc2)nc1N1CCC(NCc2ccc(Cl)c(Cl)c2)CC1
Not satisfied

MIC under 50 µM? Item: CCOC(=O)c1sc(-c2ccccn2)nc1N1CCC(NCc2ccccc2)CC1
Not satisfied

MIC under 50 µM? Item: CCOC(=O)c1sc(-c2ccccc2)nc1N1CCC(NCc2ccc(Cl)c(Cl)c2)CC1
Not satisfied

MIC under 50 µM? Item: CCOC(=O)c1sc(-c2ccncc2)nc1N1CCC(NCc2ccc(F)cc2)CC1
Not satisfied

MIC under 50 µM? Item: CCOC(=O)c1sc(-c2ccncc2)nc1N1CCC(NCc2ccc(Cl)cc2Cl)CC1
Satisfied

MIC under 50 µM? Item: CCOC(=O)c1sc(-c2ccccc2)nc1N1CCC(NCc2ccc(C(F)(F)F)cc2)CC1
Not satisfied

MIC under 50 µM? Item: CCOC(=O)c1sc(-c2ccncc2)nc1N1CCC(NCc2ccc(OCc3ccccc3)cc2)CC1
Satisfied

MIC under 50 µM? Item: CCOC(=O)c1sc(-c2ccccn2)nc1N1CCC(NCc2ccc(F)cc2)CC1
Satisfied

MIC under 50 µM? Item: CCOC(=O)c1sc(-c2ccccn2)nc1N1CCC(NCc2ccc(Cl)c(Cl)c2)CC1
Not satisfied

MIC under 50 µM? Item: CCOC(=O)c1sc(-c2ccncc2)nc1N1CCC(NCc2ccccc2)CC1
Not satisfied

MIC under 50 µM? Item: CCOC(=O)c1sc(-c2ccccn2)nc1N1CCC(NCc2cccc(C(F)(F)F)c2)CC1
Satisfied

MIC under 50 µM? Item: CCOC(=O)c1sc(-c2ccccc2)nc1N1CCC(NCc2cccc(C(F)(F)F)c2)CC1
Not satisfied

MIC under 50 µM? Item: CCOC(=O)c1sc(-c2ccccn2)nc1N1CCC(NCc2ccc(OC)cc2)CC1
Not satisfied

MIC under 50 µM? Item: CCOC(=O)c1sc(-c2ccccc2)nc1N1CCC(NCc2ccc(F)cc2)CC1
Satisfied

MIC under 50 µM? Item: CCOC(=O)c1sc(-c2ccncc2)nc1N1CCC(NCc2ccc(C(F)(F)F)cc2)CC1
Not satisfied

----------
For each entry below, report its pIC50 value.
target: DNA gyrase subunit B (Mycobacterium smegmatis); experiment: Inhibition of Mycobacterium smegmatis GyrB ATPase activity expressed in Escherichia coli BL21 (DE3) after 2 hrs
Sequence (P0C559 whole entry): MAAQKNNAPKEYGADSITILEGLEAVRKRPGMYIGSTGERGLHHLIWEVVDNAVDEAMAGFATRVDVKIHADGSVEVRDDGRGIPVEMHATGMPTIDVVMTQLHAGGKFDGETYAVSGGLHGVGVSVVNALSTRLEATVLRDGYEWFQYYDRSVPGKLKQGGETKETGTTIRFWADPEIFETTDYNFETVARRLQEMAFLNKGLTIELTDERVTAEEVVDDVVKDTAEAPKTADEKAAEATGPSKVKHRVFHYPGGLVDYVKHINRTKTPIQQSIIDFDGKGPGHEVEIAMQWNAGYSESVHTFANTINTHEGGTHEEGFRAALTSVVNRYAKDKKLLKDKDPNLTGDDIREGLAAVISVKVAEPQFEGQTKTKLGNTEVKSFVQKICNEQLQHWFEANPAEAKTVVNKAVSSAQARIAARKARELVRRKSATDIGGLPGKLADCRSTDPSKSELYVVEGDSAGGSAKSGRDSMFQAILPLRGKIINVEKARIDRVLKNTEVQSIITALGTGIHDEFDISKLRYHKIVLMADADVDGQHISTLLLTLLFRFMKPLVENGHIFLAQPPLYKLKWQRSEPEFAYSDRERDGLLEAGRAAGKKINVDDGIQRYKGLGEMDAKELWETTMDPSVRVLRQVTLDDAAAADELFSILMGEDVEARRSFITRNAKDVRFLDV
Just the number, please; pIC50 means minus log10 of the concentration in mol/L.

For the molecule CCOC(=O)c1sc(-c2ccncc2)nc1N1CCC(NCc2ccc(Cl)cc2Cl)CC1 , report pIC50.
4.57

For the molecule CCOC(=O)c1sc(-c2ccccn2)nc1N1CCC(NCc2cccc(C(F)(F)F)c2)CC1 , report pIC50.
4.54

For the molecule CCOC(=O)c1sc(-c2ccccc2)nc1N1CCC(NCc2ccc(F)cc2)CC1 , report pIC50.
4.62

For the molecule CCOC(=O)c1sc(-c2ccccc2)nc1N1CCC(NCc2cccc(C(F)(F)F)c2)CC1 , report pIC50.
4.57

----------
target: DNA gyrase subunit A/DNA gyrase subunit B (Mycobacterium tuberculosis (strain ATCC 25618 / H37Rv), UniProt P9WG45+P9WG47); test: Inhibition of Mycobacterium tuberculosis DNA gyrase super coiling activity of relaxed pBR322 using ethidium bromide staining by agarose gel electrophoresis
Sequence (P9WG45 whole entry): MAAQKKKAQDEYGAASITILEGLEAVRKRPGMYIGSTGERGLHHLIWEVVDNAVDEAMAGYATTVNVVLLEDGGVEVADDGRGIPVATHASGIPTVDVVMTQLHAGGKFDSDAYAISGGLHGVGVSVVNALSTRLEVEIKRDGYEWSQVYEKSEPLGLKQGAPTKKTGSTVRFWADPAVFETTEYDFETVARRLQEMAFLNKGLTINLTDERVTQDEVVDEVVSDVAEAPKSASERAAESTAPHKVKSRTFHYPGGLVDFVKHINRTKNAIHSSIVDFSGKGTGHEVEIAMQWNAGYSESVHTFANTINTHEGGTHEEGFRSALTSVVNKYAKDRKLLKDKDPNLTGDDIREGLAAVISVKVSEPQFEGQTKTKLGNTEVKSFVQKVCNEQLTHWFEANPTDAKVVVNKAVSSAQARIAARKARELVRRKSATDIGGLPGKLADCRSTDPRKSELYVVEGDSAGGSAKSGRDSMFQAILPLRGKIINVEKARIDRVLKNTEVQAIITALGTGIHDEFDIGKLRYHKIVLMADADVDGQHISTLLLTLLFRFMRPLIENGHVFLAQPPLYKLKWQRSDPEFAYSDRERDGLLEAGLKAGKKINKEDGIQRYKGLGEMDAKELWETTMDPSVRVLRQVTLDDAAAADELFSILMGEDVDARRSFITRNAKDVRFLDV
Sequence (P9WG47 whole entry): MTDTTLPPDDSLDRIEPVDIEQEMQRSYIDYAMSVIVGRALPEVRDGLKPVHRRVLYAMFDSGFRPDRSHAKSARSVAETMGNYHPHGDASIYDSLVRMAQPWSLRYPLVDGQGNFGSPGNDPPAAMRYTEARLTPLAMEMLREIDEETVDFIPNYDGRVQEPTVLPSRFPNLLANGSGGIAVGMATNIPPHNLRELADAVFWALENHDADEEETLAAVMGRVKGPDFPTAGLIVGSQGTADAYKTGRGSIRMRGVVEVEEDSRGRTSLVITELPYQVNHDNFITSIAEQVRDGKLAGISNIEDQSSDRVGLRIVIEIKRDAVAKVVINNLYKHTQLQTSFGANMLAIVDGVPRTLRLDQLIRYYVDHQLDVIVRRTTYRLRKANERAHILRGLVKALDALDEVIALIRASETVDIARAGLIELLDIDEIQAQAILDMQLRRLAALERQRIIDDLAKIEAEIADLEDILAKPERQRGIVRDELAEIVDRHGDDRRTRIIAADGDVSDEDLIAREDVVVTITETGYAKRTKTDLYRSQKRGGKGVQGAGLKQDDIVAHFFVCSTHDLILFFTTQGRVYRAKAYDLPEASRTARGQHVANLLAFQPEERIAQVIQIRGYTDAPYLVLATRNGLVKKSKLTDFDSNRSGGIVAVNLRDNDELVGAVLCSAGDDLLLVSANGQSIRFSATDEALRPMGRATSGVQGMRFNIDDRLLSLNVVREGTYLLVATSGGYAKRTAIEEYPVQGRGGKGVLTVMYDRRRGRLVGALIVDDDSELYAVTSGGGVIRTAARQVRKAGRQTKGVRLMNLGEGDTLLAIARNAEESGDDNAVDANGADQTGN
Endpoint Label: IC50 (µM)
Record the value in µM, omitting the unit from your answer.

For the molecule CCOC(=O)c1sc(-c2ccccc2)nc1N1CCC(NCc2ccc(F)cc2)CC1 , report IC50.
27.1

----------
test: Cytotoxicity against mouse RAW264.7 cells at 50 uM after 72 hrs by MTT assay; type: cell-based; settings: read-out: INH
With a cut-off of 8%, any cytotoxicity at 72 h, 50 µM strictly below it is called Condition met; any cytotoxicity at 72 h, 50 µM meeting it or above is called Condition not met.

cytotoxicity at 72 h, 50 µM under 8%? Item: CCOC(=O)c1sc(-c2ccccc2)nc1N1CCC(NCc2cccc(C(F)(F)F)c2)CC1
Condition not met

cytotoxicity at 72 h, 50 µM under 8%? Item: CCOC(=O)c1sc(-c2ccncc2)nc1N1CCC(NCc2cccc(C(F)(F)F)c2)CC1
Condition not met

cytotoxicity at 72 h, 50 µM under 8%? Item: CCOC(=O)c1sc(-c2ccccc2)nc1N1CCC(NCc2ccc(OC)cc2)CC1
Condition not met

cytotoxicity at 72 h, 50 µM under 8%? Item: CCOC(=O)c1sc(-c2ccccn2)nc1N1CCC(NCc2cccc(C(F)(F)F)c2)CC1
Condition not met

cytotoxicity at 72 h, 50 µM under 8%? Item: CCOC(=O)c1sc(-c2ccccn2)nc1N1CCC(NCc2ccc(OC)cc2)CC1
Condition met

----------
system: Mycobacterium tuberculosis; test: Antimycobacterial activity against Mycobacterium tuberculosis H37Rv after 7 days by MABA assay; format: functional; details: 168 h
For each entry below, report its MIC value.
Record the value in µM, omitting the unit from your answer.

For the molecule CCOC(=O)c1sc(-c2ccccc2)nc1N1CCC(NCc2ccc(Cl)cc2Cl)CC1 , report MIC.
51

For the molecule CCOC(=O)c1sc(-c2ccncc2)nc1N1CCC(NCc2cccc(C(F)(F)F)c2)CC1 , report MIC.
51

For the molecule CCOC(=O)c1sc(-c2ccccn2)nc1N1CCC(NCc2ccc(Cl)cc2Cl)CC1 , report MIC.
50.9

For the molecule CCOC(=O)c1sc(-c2ccccn2)nc1N1CCC(NCc2ccc(C(F)(F)F)cc2)CC1 , report MIC.
51
